Tested on: oat, wild
Assay: Test D postemergence
Format: in vivo, Avena fatua
Settings: Postemergence, 250 g ai/ha, scale 0 to 100
property: Oat, Wild plant response rating
# respond with the number and nothing more

CCOc1cc(C(=O)NC2CC2)nn1Cc1ccnc(C(F)(F)F)c1 :: 35

In plain terms, CCc1cc(C(=O)NC(C)C)nn1Cc1ccnc(C(F)(F)F)c1 has a documented Oat, Wild plant response rating of 25

molecule CCc1cc(C(=O)NCC(F)(F)F)nn1Cc1ccnc(C(F)(F)F)c1 , Oat, Wild plant response rating observed: 40

The molecule listed as CCCc1cc(C(=O)NCC(F)(F)F)nn1Cc1ccnc(C(F)(F)F)c1 shows Oat, Wild plant response rating equal to 50

Oat, Wild plant response rating in this record for CCCc1cc(C(=O)NCC(F)(F)F)nn1Cc1cc(C(F)(F)F)nn1C : 60

====

System: johnsongrass
Experiment: Test C preemergence
Type: in vivo, Sorghum halepense
Conditions: preemergence, 62 g ai/ha; 13 to 15 days; scale 0 to 100, 0 = no effect, 100 = complete control
Reported Plant response rating, Johnsongrass values for the following compounds.
Please reply with the number alone, leaving off any unit.

Field: example entries. Status: answers known.
CCOc1cc(C(=O)NCC(F)(F)F)nn1Cc1ccnc(C(F)(F)F)c1 :: 100
CCCc1cc(C(=O)NCC)nn1Cc1ccnc(C(F)(F)F)c1 :: 85
CCc1cc(C(=O)NCC(F)(F)F)nn1Cc1ccnc(C(F)(F)F)c1 :: 95

// next entry
Given item CCc1cc(C(=O)NOC(C)C)nn1Cc1ccnc(C(F)(F)F)c1 , the value recorded as its Plant response rating, Johnsongrass is 40

====

Entries and their Foxtail, Giant plant response rating values follow.
Test system: foxtail, giant
Experiment: Test C postemergence
Type: in vivo, Setaria faberii
Details: postemergence, 62 g ai/ha; scale 0 to 100

As a guide, the following entries are already answered.
CCCc1cc(C(=O)NCC)nn1Cc1cc(C(F)(F)F)nn1C :: 20
CCNC(=O)c1cc(CC)n(Cc2ccnc(OC(F)F)c2)n1 :: 15

molecule CCCc1cc(C(=O)NOCC)nn1Cc1ccnc(C(F)(F)F)c1 , Foxtail, Giant plant response rating observed: 5

Summary for this molecule, CCOc1cc(C(=O)NC(C)C)nn1Cc1ccnc(C(F)(F)F)c1 : Foxtail, Giant plant response rating is 40

Given item CCCc1cc(C(=O)NCC)nn1Cc1ccnc(C(F)(F)F)c1 , the value recorded as its Foxtail, Giant plant response rating is 40

Per the records, this molecule ( CCOc1cc(C(=O)NCC(F)(F)F)nn1Cc1ccnc(C(F)(F)F)c1 ) has Foxtail, Giant plant response rating equal to 85

CCc1cc(C(=O)NC(C)C)nn1Cc1ccnc(C(F)(F)F)c1 yielded Foxtail, Giant plant response rating of 40

====

Test system: lambsquarters
Assay: Test C postemergence
Format: in vivo, Chenopodium album
Conditions: postemergence, 250 g ai/ha; scale 0 to 100 (0 no effect, 100 complete control)
property: Plant response rating, Lambsquarters

CCc1cc(C(=O)NC(C)C)nn1Cc1ccnc(C(F)(F)F)c1 [Compound 139] :: 85
CCNC(=O)c1cc(CC)n(Cc2ccnc(C(F)(F)F)c2)n1 [Compound 196] :: 75
CCc1cc(C(=O)NCC2CC2)nn1Cc1ccnc(C(F)(F)F)c1 [Compound 199] :: 95

Please fill in: Plant response rating, Lambsquarters reported for CCOc1cc(C(=O)NC2CC2)nn1Cc1ccnc(OC(F)F)c1 [Compound 133] = 90

Documented Plant response rating, Lambsquarters of CCc1cc(C(=O)NC(C)C)nn1Cc1ccnc(C(F)(F)F)c1 [Compound 103] : 90

====

Reported Plant response rating, Waterhemp is given for each of the following compounds.
Tested on: waterhemp
Experiment: Test C postemergence
Assay type: in vivo, Amaranthus rudis
Conditions: postemergence, 250 g ai/ha; scale 0 to 100 (0 no effect, 100 complete control)

Field: example entries. Status: answers known.
CCCc1cc(C(=O)NCC(F)(F)F)nn1Cc1cc(C(F)(F)F)nn1C :: 95
CCCNC(=O)c1cc(CCC)n(Cc2cc(C(F)(F)F)nn2C)n1 :: 90
CCc1cc(C(=O)NC(C)C)nn1Cc1ccnc(C(F)(F)F)c1 :: 65
CCc1cc(C(=O)NC2CC2)nn1Cc1ccnc(OC(F)F)c1 :: 90
CCOc1cc(C(=O)NC2CC2)nn1Cc1ccnc(C(F)(F)F)c1 :: 90
CCc1cc(C(=O)NCC(F)(F)F)nn1Cc1ccnc(C(F)(F)F)c1 :: 95
CCOc1cc(C(=O)NC(C)C)nn1Cc1ccnc(C(F)(F)F)c1 :: 95

Next item in the queue.
Plant response rating, Waterhemp for CCCc1cc(C(=O)NCC)nn1Cc1ccnc(C(F)(F)F)c1 is 30

====

Consider the following molecules and their measured Plant response rating, Wheat readings.
Test system: wheat
Test: Test C preemergence
Format: in vivo, Triticum aestivum
Conditions: preemergence, 125 g ai/ha; 13 to 15 days; scale 0 to 100, 0 = no effect, 100 = complete control
Reply briefly: the number, and no unit.

Plant response rating, Wheat measured on CCNC(=O)c1cc(CCCl)n(Cc2ccnc(C(F)(F)F)c2)n1 = 80

Lab note: Cc1cc(C(=O)NC(C)C)nn1Cc1ccnc(C(F)(F)F)c1 gave Plant response rating, Wheat of 5

Entry under test: O=C(NCC(F)(F)F)c1cc(CCCl)n(Cc2ccnc(C(F)(F)F)c2)n1 . Its Plant response rating, Wheat was 80

====

Each item that follows carries a reported Crabgrass, Large plant response rating.
System: crabgrass, large
Assay: Test C preemergence
Assay type: in vivo, Digitaria sanguinalis
Details: preemergence, 62 g ai/ha; scale 0 to 100 (0 no effect, 100 complete control), 13 to 15 days
Text: […]

CCNC(=O)c1cc(CCCl)n(Cc2ccnc(C(F)(F)F)c2)n1 [Compound 179] :: 100
CCCc1cc(C(=O)NCC(F)(F)F)nn1Cc1ccnc(C(F)(F)F)c1 [Compound 105] :: 100
CCc1cc(C(=O)NC2CC2)nn1Cc1cc(C(F)(F)C(F)(F)F)nn1C [Compound 226] :: 100
CCNC(=O)c1cc(CC)n(Cc2ccnc(OC(F)F)c2)n1 [Compound 130] :: 100
CCc1cc(C(=O)NC(C)C)nn1Cc1ccnc(C(F)(F)F)c1 [Compound 139] :: 100

Noted for CCc1cc(C(=O)NCC2CC2)nn1Cc1ccnc(C(F)(F)F)c1 [Compound 199] : its Crabgrass, Large plant response rating reads 100

====

Here the recorded Pigweed plant response rating is given for each entry.
Test system: pigweed
Test: Test A postemergence
Assay type: in vivo, Amaranthus retroflexus
Settings: Postemergence, 500 g ai/ha; visual rating after approx. 10 days, 0 to 100 scale (0 no effect, 100 complete control)

Solved cases (5 shown):
CCc1cc(C(=O)NCC(F)(F)F)nn1Cc1ccnc(OCC(F)(F)F)c1 [Compound 106] :: 100
CCCc1cc(C(=O)NCC(F)(F)F)nn1Oc1ccnc(C(F)(F)F)c1 [Compound 92] :: 40
CCc1cc(C(=O)NCC(F)(F)F)nn1Cc1ccnc(C(F)(F)F)c1 [Compound 78] :: 100
CNC(=O)c1cc(C)n(Cc2cccc(OC(F)(F)F)c2)n1 [Compound 3] :: 70
CCc1cc(-c2ccc(Br)cc2)nn1Cc1ccnc(C(F)(F)F)c1 [Compound 112] :: 90

Memo: CCCc1cc(C(=O)NC2CC2)nn1Oc1ccnc(C(F)(F)F)c1 [Compound 93] , reported Pigweed plant response rating: 60

Short answer for CCONC(=O)c1cc(C)n(Cc2cccc(OC(F)(F)F)c2)n1 [Compound 73] : Pigweed plant response rating was 90

Sure, the documented Pigweed plant response rating for CCOc1cc(C(=O)NCC(F)(F)F)nn1Cc1ccnc(C(F)(F)F)c1 [Compound 104] is 100

get_value(item= CCCc1cc(C(=O)NCC(F)(F)F)nn1Cc1ccnc(C(F)(F)F)c1 [Compound 105] , readout=Pigweed plant response rating) returns 100

The compound listed as CCNC(=O)c1cc(C)n(Cc2cccc(OC(F)(F)F)c2)n1 [Compound 4] shows Pigweed plant response rating equal to 80

Lookup result for CCc1cc(C(=O)NCC(F)(F)F)nn1Oc1cccc(C(F)(F)F)n1 [Compound 87] ; measured Pigweed plant response rating: 10

Sample CCc1cc(-c2ccc(C(F)(F)F)cc2)nn1Cc1nc(C(F)(F)F)nn1C [Compound 115] ; Pigweed plant response rating observed: 100

====

Test system: kochia
Assay: Test D postemergence
Type: in vivo, Kochia scoparia
Details: Postemergence, 31 g ai/ha, scale 0 to 100
property: Kochia plant response rating
Answer field: number only, no words.

See these solved cases before continuing.
CCOc1cc(C(=O)NC2CC2)nn1Cc1ccnc(C(F)(F)F)c1 :: 75
CCOc1cc(C(=O)NC(C)C)nn1Cc1ccnc(C(F)(F)F)c1 :: 75
CCc1cc(C(=O)NC(C)C)nn1Cc1ccnc(C(F)(F)F)c1 :: 60

Okay, next one:
Kochia plant response rating recorded for this compound, CCCc1cc(C(=O)NCC(F)(F)F)nn1Cc1ccnc(C(F)(F)F)c1 , is 75

Where these numbers come from: patent US20150105252A1
